Hi there, I'd appreciate the recorded Ki for every entry that follows.
Biological target: Neuronal acetylcholine receptor; alpha4/beta2 (Rattus norvegicus, UniProt P09483+P12390)
Sequence (P09483 whole entry): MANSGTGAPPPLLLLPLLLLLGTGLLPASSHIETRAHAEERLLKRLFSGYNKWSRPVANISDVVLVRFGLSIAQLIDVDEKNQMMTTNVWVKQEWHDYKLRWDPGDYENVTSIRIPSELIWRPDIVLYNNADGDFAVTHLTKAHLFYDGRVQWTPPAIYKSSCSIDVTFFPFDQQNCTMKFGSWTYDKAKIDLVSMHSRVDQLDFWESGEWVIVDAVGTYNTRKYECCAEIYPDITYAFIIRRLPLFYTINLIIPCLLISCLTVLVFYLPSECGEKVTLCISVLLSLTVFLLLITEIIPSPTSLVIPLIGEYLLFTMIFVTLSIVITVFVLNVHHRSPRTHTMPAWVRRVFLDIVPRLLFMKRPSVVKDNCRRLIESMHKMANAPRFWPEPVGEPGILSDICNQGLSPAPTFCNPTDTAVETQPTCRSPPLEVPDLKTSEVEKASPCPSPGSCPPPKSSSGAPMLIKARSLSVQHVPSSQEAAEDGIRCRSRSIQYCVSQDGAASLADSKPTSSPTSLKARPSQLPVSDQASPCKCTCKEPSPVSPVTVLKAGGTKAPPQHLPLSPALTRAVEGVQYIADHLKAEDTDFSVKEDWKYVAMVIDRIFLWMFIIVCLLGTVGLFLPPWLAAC
Sequence (P12390 whole entry): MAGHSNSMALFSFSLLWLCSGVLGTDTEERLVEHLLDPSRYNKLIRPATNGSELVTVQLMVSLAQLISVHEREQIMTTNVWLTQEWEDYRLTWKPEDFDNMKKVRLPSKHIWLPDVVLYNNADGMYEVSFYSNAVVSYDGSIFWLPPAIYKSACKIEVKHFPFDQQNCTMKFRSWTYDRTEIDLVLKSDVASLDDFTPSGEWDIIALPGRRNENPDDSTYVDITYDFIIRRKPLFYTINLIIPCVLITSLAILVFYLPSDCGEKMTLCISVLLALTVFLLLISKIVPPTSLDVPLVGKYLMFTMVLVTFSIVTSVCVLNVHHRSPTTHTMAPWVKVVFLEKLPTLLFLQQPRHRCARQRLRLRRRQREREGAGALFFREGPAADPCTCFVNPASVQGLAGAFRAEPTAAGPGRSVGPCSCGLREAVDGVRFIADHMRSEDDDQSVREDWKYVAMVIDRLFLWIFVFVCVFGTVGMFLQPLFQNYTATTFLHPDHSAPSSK
Experiment: Displacement of [3H]epibatidine from rat alpha4beta2 nAChR transfected in HEK293 cells after 2 hrs by beta-plate counting analysis
Give the number; nM is assumed, so skip it.

Return reported Ki. Input compound: CC(C)(C)C1CCC(CN2C(=N)N(CCCC[C@H]3CNC(=N)N3CCc3cccnc3)C[C@H]2Cc2ccccc2)CC1 (some centres undefined)
118

Return reported Ki. Input compound: CC(C)(C)C1CCC(CN2C(=N)N(CCCC[C@@H]3CNC(=N)N3CCc3cccnc3)C[C@H]2CC2CCCCC2)CC1 (some centres undefined)
257

Return reported Ki. Input compound: `N=C1N(CCCC[C@H]2CN=C(N)N2CCc2cccc(F)c2)C[C@@H](Cc2ccccc2)N1CCc1cccc(Br)c1`
1800

Return reported Ki. Input compound: `CO[C@H]1CC=C2CCN3CCC4=C(CC(=O)OC4)[C@]23C1`
485

====

Target: Nicotinic acetylcholine receptor alpha3/beta4/alpha5 (Homo sapiens, UniProt P30532+P30926+P32297)
Sequence (P30926 whole entry): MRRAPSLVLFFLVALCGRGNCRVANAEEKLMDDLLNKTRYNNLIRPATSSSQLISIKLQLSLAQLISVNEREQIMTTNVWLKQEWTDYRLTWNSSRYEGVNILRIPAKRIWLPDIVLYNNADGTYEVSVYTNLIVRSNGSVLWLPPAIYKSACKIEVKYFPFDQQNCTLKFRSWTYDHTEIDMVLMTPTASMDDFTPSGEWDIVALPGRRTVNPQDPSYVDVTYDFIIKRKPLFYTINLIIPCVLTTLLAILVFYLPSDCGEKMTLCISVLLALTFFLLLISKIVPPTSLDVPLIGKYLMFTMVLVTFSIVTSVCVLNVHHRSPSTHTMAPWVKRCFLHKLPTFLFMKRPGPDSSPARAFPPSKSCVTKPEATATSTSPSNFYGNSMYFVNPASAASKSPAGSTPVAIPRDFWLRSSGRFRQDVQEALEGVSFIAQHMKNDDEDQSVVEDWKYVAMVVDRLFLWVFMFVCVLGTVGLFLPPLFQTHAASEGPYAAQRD
Sequence (P32297 whole entry): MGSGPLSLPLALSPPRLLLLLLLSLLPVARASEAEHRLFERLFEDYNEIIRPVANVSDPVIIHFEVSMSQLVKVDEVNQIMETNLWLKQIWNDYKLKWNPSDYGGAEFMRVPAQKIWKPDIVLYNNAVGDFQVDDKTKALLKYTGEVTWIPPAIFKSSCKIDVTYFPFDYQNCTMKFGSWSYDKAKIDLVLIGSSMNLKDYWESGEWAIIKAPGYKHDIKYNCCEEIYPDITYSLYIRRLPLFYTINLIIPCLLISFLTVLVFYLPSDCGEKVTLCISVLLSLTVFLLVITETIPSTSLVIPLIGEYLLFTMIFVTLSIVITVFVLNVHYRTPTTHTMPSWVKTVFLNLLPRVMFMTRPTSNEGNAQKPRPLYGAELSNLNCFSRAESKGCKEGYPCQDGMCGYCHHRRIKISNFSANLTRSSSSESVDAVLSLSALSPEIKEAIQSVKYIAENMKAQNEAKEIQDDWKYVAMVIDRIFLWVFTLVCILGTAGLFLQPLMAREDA
Sequence (P30532 whole entry): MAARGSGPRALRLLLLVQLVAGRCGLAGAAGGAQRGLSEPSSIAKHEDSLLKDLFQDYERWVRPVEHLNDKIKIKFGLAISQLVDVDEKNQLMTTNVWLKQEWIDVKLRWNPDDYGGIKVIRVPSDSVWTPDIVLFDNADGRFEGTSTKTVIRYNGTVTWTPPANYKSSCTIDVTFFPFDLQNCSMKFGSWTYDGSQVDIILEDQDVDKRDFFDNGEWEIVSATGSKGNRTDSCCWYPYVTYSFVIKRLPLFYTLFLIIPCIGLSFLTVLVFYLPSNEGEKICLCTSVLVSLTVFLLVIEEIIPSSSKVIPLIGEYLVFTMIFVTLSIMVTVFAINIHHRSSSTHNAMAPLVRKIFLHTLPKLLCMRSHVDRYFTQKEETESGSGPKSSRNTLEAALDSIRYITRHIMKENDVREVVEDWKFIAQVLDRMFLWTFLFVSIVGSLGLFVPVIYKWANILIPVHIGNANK
Test: Binding affinity to alpha3beta4alpha5 nAChR (unknown origin)
Reported Endpoint: pKi
pKi field: float, defined as -log10 of concentration (mol/L).

Return reported pKi. Input compound: CC(C)(C)C1CCC(CN2C(=N)N(CCCC[C@H]3CNC(=N)N3CCc3cccnc3)C[C@H]2Cc2ccccc2)CC1 (stereo partly specified)
5.04

====

Hi there, I'd appreciate the recorded pIC50 for every entry that follows.
Molecular target: Neuronal acetylcholine receptor; alpha4/beta2 (Rattus norvegicus, UniProt P09483+P12390)
Test: Antagonist activity at rat alpha4beta2 nAChR transfected in HEK293 cells after 10 mins by fluorescence assay in presence of nicotine
pIC50 field: float, defined as -log10 of concentration (mol/L).

Recall the reported pIC50 of CC(C)(C)C1CCC(CN2C(=N)N(CCCC[C@@H]3CNC(=N)N3CCc3cccnc3)C[C@H]2CC2CCCCC2)CC1 (stereo partly specified) on Neuronal acetylcholine receptor; alpha4/beta2 (Rattus norvegicus, UniProt P09483+P12390) and write it down.
5.77

Recall the reported pIC50 of CC(C)(C)C1CCC(CN2C(=N)N(CCCC[C@H]3CNC(=N)N3CCc3cccc(F)c3)C[C@H]2Cc2ccccc2)CC1 (stereo partly specified) on Neuronal acetylcholine receptor; alpha4/beta2 (Rattus norvegicus, UniProt P09483+P12390) and write it down.
4.58

Recall the reported pIC50 of CC(C)(C)C1CCC(CN2CCN(CCCC[C@H]3CN=C(N)N3CCc3cccnc3)C2=N)CC1 (stereo partly specified) on Neuronal acetylcholine receptor; alpha4/beta2 (Rattus norvegicus, UniProt P09483+P12390) and write it down.
5.55

Recall the reported pIC50 of `CO[C@H]1CC=C2CCN3CCC4=C(CC(=O)OC4)[C@]23C1` on Neuronal acetylcholine receptor; alpha4/beta2 (Rattus norvegicus, UniProt P09483+P12390) and write it down.
6.20

Recall the reported pIC50 of CC(C)(C)C1CCC(CN2C(=N)N(CCCC[C@@H]3CNC(=N)N3CCc3cccnc3)C[C@H]2Cc2ccccc2)CC1 (stereo partly specified) on Neuronal acetylcholine receptor; alpha4/beta2 (Rattus norvegicus, UniProt P09483+P12390) and write it down.
5.52

Recall the reported pIC50 of CC(C)(C)C1CCC(CN2CCN(CCCC[C@@H]3CNC(=N)N3CCc3cccnc3)C2=N)CC1 (stereo partly specified) on Neuronal acetylcholine receptor; alpha4/beta2 (Rattus norvegicus, UniProt P09483+P12390) and write it down.
5.53

Recall the reported pIC50 of CC(C)(C)C1CCC(CN2C(=N)N(CCCC[C@H]3CN=C(N)N3CCc3cccnc3)C[C@H]2CC2CCCCC2)CC1 (stereo partly specified) on Neuronal acetylcholine receptor; alpha4/beta2 (Rattus norvegicus, UniProt P09483+P12390) and write it down.
5.55

Recall the reported pIC50 of CC(C)(C)C1CCC(CN2C(=N)N(CCCC[C@H]3CN=C(N)N3CCc3cccnc3)C[C@@H]2Cc2ccccc2)CC1 (stereo partly specified) on Neuronal acetylcholine receptor; alpha4/beta2 (Rattus norvegicus, UniProt P09483+P12390) and write it down.
5.83

Recall the reported pIC50 of CC(C)(C)C1CCC(CN2C(=N)N(CCCC[C@H]3CN=C(N)N3CCc3cccnc3)C[C@@H]2CC2CCCCC2)CC1 (stereo partly specified) on Neuronal acetylcholine receptor; alpha4/beta2 (Rattus norvegicus, UniProt P09483+P12390) and write it down.
5.47

Recall the reported pIC50 of CC(C)(C)C1CCC(CN2C(=N)N(CCCC[C@H]3CNC(=N)N3CCc3cccnc3)C[C@H]2Cc2ccccc2)CC1 (stereo partly specified) on Neuronal acetylcholine receptor; alpha4/beta2 (Rattus norvegicus, UniProt P09483+P12390) and write it down.
6.29

Recall the reported pIC50 of CC(C)(C)C1CCC(CN2C(=N)N(CCCC[C@H]3CN=C(N)N3CCc3cccc(F)c3)C[C@H]2CC2CCCCC2)CC1 (stereo partly specified) on Neuronal acetylcholine receptor; alpha4/beta2 (Rattus norvegicus, UniProt P09483+P12390) and write it down.
5.27

====

Molecular target: Neuronal acetylcholine receptor; alpha3/beta4 (Rattus norvegicus, UniProt P04757+P12392)
Sequence (P04757 whole entry): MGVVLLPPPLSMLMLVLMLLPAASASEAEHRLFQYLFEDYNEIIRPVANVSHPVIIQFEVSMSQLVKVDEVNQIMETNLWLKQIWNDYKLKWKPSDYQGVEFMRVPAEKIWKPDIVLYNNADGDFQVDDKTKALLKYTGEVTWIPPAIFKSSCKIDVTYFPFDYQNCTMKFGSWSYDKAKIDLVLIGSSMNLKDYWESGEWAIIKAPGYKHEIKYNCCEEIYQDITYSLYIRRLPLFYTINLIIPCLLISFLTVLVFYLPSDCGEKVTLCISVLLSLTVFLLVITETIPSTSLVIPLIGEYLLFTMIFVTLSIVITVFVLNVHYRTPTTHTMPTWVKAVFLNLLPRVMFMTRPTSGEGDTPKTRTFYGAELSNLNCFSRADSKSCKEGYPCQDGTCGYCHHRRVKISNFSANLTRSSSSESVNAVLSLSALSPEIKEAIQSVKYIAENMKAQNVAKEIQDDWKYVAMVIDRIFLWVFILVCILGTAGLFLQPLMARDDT
Sequence (P12392 whole entry): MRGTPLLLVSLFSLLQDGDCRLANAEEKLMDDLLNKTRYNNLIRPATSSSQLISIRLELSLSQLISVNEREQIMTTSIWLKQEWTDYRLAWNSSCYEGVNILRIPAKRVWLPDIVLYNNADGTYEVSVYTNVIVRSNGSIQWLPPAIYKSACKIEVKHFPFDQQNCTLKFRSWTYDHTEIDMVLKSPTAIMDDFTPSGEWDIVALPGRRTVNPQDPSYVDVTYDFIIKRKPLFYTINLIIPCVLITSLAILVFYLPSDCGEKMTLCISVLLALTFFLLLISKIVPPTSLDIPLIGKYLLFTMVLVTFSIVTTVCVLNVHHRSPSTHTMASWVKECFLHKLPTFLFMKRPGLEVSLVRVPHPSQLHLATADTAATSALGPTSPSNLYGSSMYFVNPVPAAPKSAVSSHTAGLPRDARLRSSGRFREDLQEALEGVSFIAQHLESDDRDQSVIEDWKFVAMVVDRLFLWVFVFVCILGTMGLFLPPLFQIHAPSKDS
Assay: Displacement of [3H]epibatidine from rat alpha3beta4 nAChR transfected in HEK293 cells after 2 hrs by beta-plate counting analysis
Reported Endpoint: pKi
pKi field: float, defined as -log10 of concentration (mol/L).

Return reported pKi. Input compound: `N=C1N(CCCC[C@H]2CN=C(N)N2CCc2ccc(Cl)c(Cl)c2)C[C@@H](Cc2ccc3ccccc3c2)N1CCc1ccc(Br)cc1`
5.40

Return reported pKi. Input compound: CC(C)(C)C1CCC(CN2C(=N)N(CCCC[C@H]3CN=C(N)N3CCc3cccnc3)C[C@H]2CC2CCCCC2)CC1 (some centres not stated)
4.22

Return reported pKi. Input compound: `CC(C)CCCN1C(=N)NC[C@@H]1CCCCN1C[C@@H](Cc2ccccc2)N(CCc2cccc(Br)c2)C1=N`
4.32

Return reported pKi. Input compound: `N=C1N(CCCC[C@H]2CN=C(N)N2CCc2cccc(F)c2)C[C@@H](Cc2ccccc2)N1CCc1cccc(Br)c1`
4.69

Return reported pKi. Input compound: `N=C1N(CCCC[C@H]2CN=C(N)N2CCc2cccc(F)c2)C[C@@H](CC2CCCCC2)N1CCc1cccc(Br)c1`
4.70

Return reported pKi. Input compound: CC(C)(C)C1CCC(CN2C(=N)N(CCCC[C@H]3CN=C(N)N3CCc3cccc(F)c3)C[C@H]2CC2CCCCC2)CC1 (some centres not stated)
4.05

Return reported pKi. Input compound: CC(C)(C)C1CCC(CN2C(=N)N(CCCC[C@H]3CNC(=N)N3CCc3cccnc3)C[C@H]2Cc2ccccc2)CC1 (some centres not stated)
4.25

Return reported pKi. Input compound: `N=C1N(CCCC[C@H]2CN=C(N)N2CCc2ccc(Cl)c(Cl)c2)C[C@@H](Cc2ccc3ccccc3c2)N1CCc1cccc(Br)c1`
5.52

Return reported pKi. Input compound: CC(C)CCCN1C(N)=NC[C@@H]1CCCCN1C[C@@H](CC2CCCCC2)N(CC2CCC(C(C)(C)C)CC2)C1=N (some centres not stated)
4.11

Return reported pKi. Input compound: CC(C)(C)C1CCC(CN2C(=N)N(CCCC[C@H]3CNC(=N)N3CCc3cccc(F)c3)C[C@H]2Cc2ccccc2)CC1 (some centres not stated)
4.21

Return reported pKi. Input compound: CC(C)(C)C1CCC(CN2C(=N)N(CCCC[C@@H]3CNC(=N)N3CCc3cccnc3)C[C@H]2CC2CCCCC2)CC1 (some centres not stated)
4.48

Return reported pKi. Input compound: CC(C)(C)C1CCC(CN2C(=N)N(CCCC[C@H]3CN=C(N)N3CCc3cccnc3)C[C@@H]2Cc2ccccc2)CC1 (some centres not stated)
4.62

Return reported pKi. Input compound: CC(C)(C)C1CCC(CN2C(=N)N(CCCC[C@H]3CN=C(N)N3CCc3cccnc3)C[C@@H]2CC2CCCCC2)CC1 (some centres not stated)
4.11

Return reported pKi. Input compound: CCCCCCCN1C(N)=NC[C@@H]1CCCCN1C[C@@H](CC2CCCCC2)N(CC2CCC(C(C)(C)C)CC2)C1=N (some centres not stated)
4.26

Return reported pKi. Input compound: CC(C)CCCN1C(N)=NC[C@@H]1CCCCN1C[C@@H](Cc2ccccc2)N(CC2CCC(C(C)(C)C)CC2)C1=N (some centres not stated)
4.16

Return reported pKi. Input compound: `N=C1N(CCCC[C@H]2CN=C(N)N2CCc2ccc(Cl)c(Cl)c2)C[C@H](Cc2ccc3ccccc3c2)N1CCc1ccc(Br)cc1`
5.57

Return reported pKi. Input compound: `CC(C)CCCN1C(N)=NC[C@@H]1CCCCN1C[C@@H](CC2CCCCC2)N(CCc2cccc(Br)c2)C1=N`
4.43

Return reported pKi. Input compound: `N=C1N(CCCC[C@H]2CN=C(N)N2CCc2ccc(Cl)c(Cl)c2)C[C@H](Cc2ccc3ccccc3c2)N1CCc1cccc(Br)c1`
4.12

Return reported pKi. Input compound: CC(C)(C)C1CCC(CN2CCN(CCCC[C@H]3CN=C(N)N3CCc3cccnc3)C2=N)CC1 (some centres not stated)
4.56

Return reported pKi. Input compound: CCCCCCCN1C(N)=NC[C@@H]1CCCCN1C[C@@H](Cc2ccccc2)N(CC2CCC(C(C)(C)C)CC2)C1=N (some centres not stated)
4.26

Return reported pKi. Input compound: `N=C1N(CCCC[C@H]2CN=C(N)N2CCc2ccc(Cl)c(Cl)c2)C[C@H](Cc2ccc3ccccc3c2)N1CCc1ccc(Cl)c(Cl)c1`
4.00

Return reported pKi. Input compound: `CCCCCCCN1C(N)=NC[C@@H]1CCCCN1C[C@@H](CC2CCCCC2)N(CCc2cccc(Br)c2)C1=N`
4.63

Return reported pKi. Input compound: CC(C)(C)C1CCC(CN2CCN(CCCC[C@@H]3CNC(=N)N3CCc3cccnc3)C2=N)CC1 (some centres not stated)
4.28

Return reported pKi. Input compound: CC(C)(C)C1CCC(CN2C(=N)N(CCCC[C@@H]3CNC(=N)N3CCc3cccnc3)C[C@H]2Cc2ccccc2)CC1 (some centres not stated)
4.20

Return reported pKi. Input compound: `CCCCCCCN1C(=N)NC[C@@H]1CCCCN1C[C@@H](Cc2ccccc2)N(CCc2cccc(Br)c2)C1=N`
4.84

Return reported pKi. Input compound: `N=C1N(CCCC[C@H]2CN=C(N)N2CCc2ccc(Cl)c(Cl)c2)C[C@@H](Cc2ccc3ccccc3c2)N1CCc1ccc(Cl)c(Cl)c1`
3.46

Cited source: ChEMBL document CHEMBL3108759
